Data origin, for the record: paper PMC11418112

# Experimental system: T1, RsbV-P (phosphorylated RsbV) (B. subtilis) (UniProt P17903)
# T1 sequence (chain, phosphoserine at 56 (32P)): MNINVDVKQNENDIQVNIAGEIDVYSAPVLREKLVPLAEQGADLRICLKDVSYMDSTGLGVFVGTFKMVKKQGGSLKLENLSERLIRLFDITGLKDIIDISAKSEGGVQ
// KM for RsbV-P (single turnover, varying SpoIIE, 10 mM MnCl2, Michaelis-Menten fit) lookup, one value per entry
Use µM as the unit, but write only the number.

# Binder, Readout unit, Observed measurement
measured = [
    ("SpoIIE phosphatase domain (SpoIIE^590-827) (domain or fragment) SYRVSTGAAHAAKGGGLVSGDSYSMMELGARKYAAAISDGMGNGARAHFESNETIKLLEKILESGIDEKIAIKTINSILSLRTTDEIYSTLDLSIIDLQDASCKFLKVGSTPSFIKRGDQVMKVQASNLPIGIINEFDVEVVSEQLKAGDLLIMMSDGIFEGPKHVENHDLWMKRKMKGLKTNDPQEIADLLMEEVIRTRSGQIEDDMTVVVVRIDHNTPKWASIPVPAIFQNKQEIS", "µM", 12.8),
    ("SpoIIE^P752R (phosphatase domain, SpoIIE^590-827) (domain or fragment) SYRVSTGAAHAAKGGGLVSGDSYSMMELGARKYAAAISDGMGNGARAHFESNETIKLLEKILESGIDEKIAIKTINSILSLRTTDEIYSTLDLSIIDLQDASCKFLKVGSTPSFIKRGDQVMKVQASNLPIGIINEFDVEVVSEQLKAGDLLIMMSDGIFEGRKHVENHDLWMKRKMKGLKTNDPQEIADLLMEEVIRTRSGQIEDDMTVVVVRIDHNTPKWASIPVPAIFQNKQEIS", "µM", 79.3),
    ("SpoIIE^E675S (phosphatase domain, SpoIIE^590-827) (domain or fragment) SYRVSTGAAHAAKGGGLVSGDSYSMMELGARKYAAAISDGMGNGARAHFESNETIKLLEKILESGIDEKIAIKTINSILSLRTTDSIYSTLDLSIIDLQDASCKFLKVGSTPSFIKRGDQVMKVQASNLPIGIINEFDVEVVSEQLKAGDLLIMMSDGIFEGPKHVENHDLWMKRKMKGLKTNDPQEIADLLMEEVIRTRSGQIEDDMTVVVVRIDHNTPKWASIPVPAIFQNKQEIS", "µM", 95.7),
]

Kindly consider the entry below.
Find the recorded KM for RsbV-P (single turnover, varying SpoIIE, 10 mM MnCl2, Michaelis-Menten fit) belonging to SpoIIE^I723S (phosphatase domain, SpoIIE^590-827) (domain or fragment) SYRVSTGAAHAAKGGGLVSGDSYSMMELGARKYAAAISDGMGNGARAHFESNETIKLLEKILESGIDEKIAIKTINSILSLRTTDEIYSTLDLSIIDLQDASCKFLKVGSTPSFIKRGDQVMKVQASNLPIGISNEFDVEVVSEQLKAGDLLIMMSDGIFEGPKHVENHDLWMKRKMKGLKTNDPQEIADLLMEEVIRTRSGQIEDDMTVVVVRIDHNTPKWASIPVPAIFQNKQEIS and report it.
47.6
